- assay.system: Beta-mannosidase (Rattus norvegicus)
- Sequence (Q4FZV0 whole entry): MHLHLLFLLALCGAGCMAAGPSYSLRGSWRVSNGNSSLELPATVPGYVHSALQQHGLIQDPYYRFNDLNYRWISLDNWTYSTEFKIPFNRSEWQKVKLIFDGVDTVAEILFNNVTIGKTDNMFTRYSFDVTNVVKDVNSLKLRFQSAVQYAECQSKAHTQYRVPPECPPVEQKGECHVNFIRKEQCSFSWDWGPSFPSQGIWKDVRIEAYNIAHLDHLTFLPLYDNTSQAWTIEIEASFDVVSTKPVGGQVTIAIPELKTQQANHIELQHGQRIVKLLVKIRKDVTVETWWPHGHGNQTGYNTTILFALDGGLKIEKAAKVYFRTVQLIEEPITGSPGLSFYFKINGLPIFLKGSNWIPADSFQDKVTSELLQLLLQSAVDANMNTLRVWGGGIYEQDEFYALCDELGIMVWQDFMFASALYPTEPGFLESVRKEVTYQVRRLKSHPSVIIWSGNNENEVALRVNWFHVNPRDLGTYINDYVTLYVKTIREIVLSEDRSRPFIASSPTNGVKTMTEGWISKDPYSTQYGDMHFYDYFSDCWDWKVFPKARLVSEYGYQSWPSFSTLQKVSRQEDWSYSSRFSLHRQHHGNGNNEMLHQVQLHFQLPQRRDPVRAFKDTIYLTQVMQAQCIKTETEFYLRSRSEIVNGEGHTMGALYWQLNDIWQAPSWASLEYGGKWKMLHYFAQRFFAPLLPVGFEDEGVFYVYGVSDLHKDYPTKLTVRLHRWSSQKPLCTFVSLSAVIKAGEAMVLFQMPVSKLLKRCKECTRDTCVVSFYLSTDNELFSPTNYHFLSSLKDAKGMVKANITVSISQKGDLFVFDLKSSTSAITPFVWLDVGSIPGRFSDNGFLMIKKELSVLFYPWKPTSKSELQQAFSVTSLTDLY
property.measured: IC50 (µM)

So, OCC(O)CCCCC(O)CC(O)CCC[C@@H](O)[C@H]1N[C@H](CO)[C@@H](O)[C@@H]1O (stereo partly drawn) ? Its IC50 was 9.3

I. CC(O)C[C@H]1N[C@H](CO)[C@@H](O)[C@@H]1O (stereo partly drawn)
II. CC(O)[C@@H](O)[C@H]1N[C@H](CO)[C@@H](O)[C@@H]1O (stereo partly drawn)
Query string: Lab log: flag the item ( I or II ) with the smaller IC50 figure. Pick one and reply with its label.
Result string: II
(II: 150 µM, I: 610 µM)

The origin of these recorded values is ChEMBL document CHEMBL1151206.
